system: HOP-92 NSCLC; test: NCI tumour cell line growth inhibition, 48 h
assayMetric: GI50

- molecule: "CC(=O)OC1Oc2cc(C)c(C)cc2-c2oc(=O)c(-c3ccccc3)cc21 (configuration not stated)"
  reading: "1.98 µM"
- molecule: "COc1ccc(C2NC(=S)NC3=C2COc2ccc(F)cc23)cc1OC (configuration not stated)"
  reading: "41.7 µM"
- molecule: "COc1cc(-c2nn3c(=O)n(-c4ccc(Cl)cc4)c(=O)nc3s2)cc(OC)c1OC"
  reading: "44.4 µM"
- molecule: "CCCC(=O)Nc1cn(COC)c(C(=O)N2C[C@H]3C[C@@]34C2=CC(=O)c2[nH]cc(C)c24)n1"
  reading: "5.12 µM"
- molecule: "COc1ccc(-c2conc2-c2ccccc2)cc1"
  reading: "4.58 µM"
- molecule: "Cc1cc2c(-c3nc4ccccn4c3NC34CC5CC(CC(C5)C3)C4)c(O)c(O)cc2c(O)c1-c1c(C)cc2c(-c3nc4ccccn4c3NC34CC5CC(CC(C5)C3)C4)c(O)c(O)cc2c1O"
  reading: "0.616 µM"
- molecule: "CCOC(=O)/N=c1\\ssc(Cl)c1Cl"
  reading: "5.66 µM"
- molecule: "CN1CCN(CCCOc2ccc3ncnc(Nc4ccc(Oc5cccc(F)c5)c(Cl)c4)c3c2)CC1"
  reading: "0.907 µM"
- molecule: "CC(C)(C)OC(=O)n1c(Cl)c(C(=O)N=C=S)c2ccccc21"
  reading: "17.2 µM"
- molecule: "COc1cc(/C=C2\\C(=O)Nc3ccc(Br)cc32)cc(OC)c1OC"
  reading: "2.68 µM"
- molecule: "COc1ccc(-c2nn(-c3cccc(Cl)c3)cc2/C=C2\\C(=N)N(c3ccccc3)N=C2N)cc1"
  reading: "22.4 µM"
- molecule: "Cc1cc([C@H](C)Nc2nccc(N3C(=O)OC[C@@H]3[C@H](C)F)n2)ncc1-c1ccnc(C(F)(F)F)c1"
  reading: "14.9 µM"

* * *

tested on: UO-31 renal; experiment: NCI tumour cell line growth inhibition, 48 h
Some compounds, each annotated with its measured TGI.
assayMetric: TGI

- compound: "CCOc1ccccc1NC(=O)CCC(=O)NN"
  measurementTarget: "UO-31 renal"
  assayMetric: "TGI"
  reading: "> 100 µM"
- compound: "COc1ccc2[nH]c3c(C)c4cc[n+](COC(=O)c5ccccc5)cc4c(C)c3c2c1"
  measurementTarget: "UO-31 renal"
  assayMetric: "TGI"
  reading: "5.68 µM"
- compound: "COc1ccc(C(=C2C(=O)OC(=O)C2=C(C)C)c2ccc(OC)cc2)cc1"
  measurementTarget: "UO-31 renal"
  assayMetric: "TGI"
  reading: "> 100 µM"
- compound: "CCOP(=O)(CC1OC(CO)C(O)C1O)OCC (configuration not stated)"
  measurementTarget: "UO-31 renal"
  assayMetric: "TGI"
  reading: "> 100 µM"
- compound: "C[N+]1(CCCCN2c3ccccc3Sc3cc(N=[N+]=[N-])ccc32)CCN(C(=O)CCNC(=O)Cc2ccc(C(=O)c3ccccc3)cc2)CC1"
  measurementTarget: "UO-31 renal"
  assayMetric: "TGI"
  reading: "39 µM"
- compound: "CCOC(=O)OC1(c2ccccc2)CCN(C)CC1"
  measurementTarget: "UO-31 renal"
  assayMetric: "TGI"
  reading: "> 100 µM"
- compound: "O=C(O)C12C3C4(C(=O)O)C1C1(C(=O)O)C2C3(C(=O)O)C41 (configuration not stated)"
  measurementTarget: "UO-31 renal"
  assayMetric: "TGI"
  reading: "> 100 µM"
- compound: "CCCCOP1(=O)C=CC(Cl)=C(C)C1 (configuration not stated)"
  measurementTarget: "UO-31 renal"
  assayMetric: "TGI"
  reading: "> 100 µM"
- compound: "CC1=CC(O)CC(C)(C)C1/C=C/C(C)=C/C=C/C(C)=C/C=C/C=C(C)/C=C/C=C(C)/C=C/C1=C(C)CC(O)CC1(C)C (configuration not stated)"
  measurementTarget: "UO-31 renal"
  assayMetric: "TGI"
  reading: "> 100 µM"
- compound: "CCOC(=O)/N=c1\\ssc(Cl)c1Cl"
  measurementTarget: "UO-31 renal"
  assayMetric: "TGI"
  reading: "> 100 µM"
- compound: "Nc1nc(Cl)cc(NCCCCCCNc2cc(Cl)nc(N)n2)n1"
  measurementTarget: "UO-31 renal"
  assayMetric: "TGI"
  reading: "> 100 µM"
- compound: "C=CCN(c1cc(OC)c2[nH]c(C(=O)O)c(C)c2c1[N+](=O)[O-])S(C)(=O)=O"
  measurementTarget: "UO-31 renal"
  assayMetric: "TGI"
  reading: "> 100 µM"
- compound: "CC(=O)[O-].O=[N+]([O-])c1ccc([O-])c(C=NCCN=Cc2cc([N+](=O)[O-])ccc2[O-])c1.[Mn+3]"
  measurementTarget: "UO-31 renal"
  assayMetric: "TGI"
  reading: "> 100 µM"
- compound: "COc1ccc(-c2cn(-c3cc(OC)c(OC)c(OC)c3)c(=O)n2-c2ccccc2)cc1"
  measurementTarget: "UO-31 renal"
  assayMetric: "TGI"
  reading: "> 100 µM"
- compound: "NC(=O)c1c(NC(=O)c2cccc(C(F)(F)F)c2)sc2c1CCC(=O)C2"
  measurementTarget: "UO-31 renal"
  assayMetric: "TGI"
  reading: "1.19 µM"
- compound: "COC(=O)c1ccc2cc(O)ccc2c1"
  measurementTarget: "UO-31 renal"
  assayMetric: "TGI"
  reading: "> 100 µM"
- compound: "Nc1cc2nc(-c3ccccc3)cn2cn1"
  measurementTarget: "UO-31 renal"
  assayMetric: "TGI"
  reading: "> 100 µM"
- compound: "C=C1c2ccccc2N(S(=O)(=O)c2ccc(C)cc2)C12CCCCC2"
  measurementTarget: "UO-31 renal"
  assayMetric: "TGI"
  reading: "> 100 µM"
- compound: "O=c1ncccn1C1OC(CO)C(O)C1F (configuration not stated)"
  measurementTarget: "UO-31 renal"
  assayMetric: "TGI"
  reading: "> 100 µM"
- compound: "CCn1c(-c2nonc2N)nc2c(C#CC(C)(C)O)ncc(OC[C@@H]3CCCN3)c21"
  measurementTarget: "UO-31 renal"
  assayMetric: "TGI"
  reading: "> 25 µM"
- compound: "O=C1c2c(Br)sc(Br)c2[C@H]2OC(=S)N[C@@H]12"
  measurementTarget: "UO-31 renal"
  assayMetric: "TGI"
  reading: "3.34 µM"
- compound: "C/C(N=NC(=S)N1CCCCCC1)=C1\\C=CC=CN1O"
  measurementTarget: "UO-31 renal"
  assayMetric: "TGI"
  reading: "> 100 µM"

* * *

Property: TGI; scope: individual molecules
system: HOP-92 NSCLC; assay: NCI tumour cell line growth inhibition, 48 h
assayMetric: TGI (µM)

- molecule: "COc1ccc(CCn2ccc(=O)c(O)c2C)cc1OC"
  assayMetric: "TGI"
  valueQualifier: "="
  reading: 80.5
- molecule: "O=C1c2cccnc2C(=O)c2c1nc1ccccc1c2-c1ccc2c3c(nc4ccccc42)C(=O)c2cccnc2-c13"
  assayMetric: "TGI"
  valueQualifier: "="
  reading: 30.5
- molecule: "COc1cc(/C=C2/C(=O)N(C(=O)c3ccccc3O)N=C2C)ccc1O"
  assayMetric: "TGI"
  valueQualifier: ">"
  reading: 100
- molecule: "CC1OC2OC3C(OCC(O)C3O)OC(=O)[C@]34CCC(C)(C)CC3C3=CCC5[C@@]6(C)C[C@H](O)[C@H](OC7OC(CO)C(O)C(O)C7OC7OC(COC(=O)CC(C)(O)CC(=O)OC1C(OC1OC(CO)C(O)C(O)C1O)C2O)C(O)C(O)C7O)[C@@](C)(CO)C6CC[C@@]5(C)[C@]3(C)CC4 (some centres undefined)"
  assayMetric: "TGI"
  valueQualifier: "="
  reading: 4.31
- molecule: "CC(C)c1ccc2c(c1)c(SC(C)(C)C)c(CC(C)(C)C(=O)O)n2Cc1ccc(Cl)cc1"
  assayMetric: "TGI"
  valueQualifier: "="
  reading: 22.5
- molecule: "COc1ccc2c(c1)-c1nc(=S)n(CCN(C)C)c3ccc([N+](=O)[O-])c(c13)N2"
  assayMetric: "TGI"
  valueQualifier: "="
  reading: 27.7
- molecule: "Oc1ccc(C[C@@H]2CN[C@H](Cc3ccc(O)c(Br)c3)CN2)cc1"
  assayMetric: "TGI"
  valueQualifier: ">"
  reading: 100
- molecule: "OCCN(CCO)c1ncnc2c1sc(=S)n2-c1ccccc1"
  assayMetric: "TGI"
  valueQualifier: ">"
  reading: 100
- molecule: "OC(CCN1CCN(CCOC(c2ccc(F)cc2)c2ccc(F)cc2)CC1)c1ccc(Br)cc1 (centres undefined)"
  assayMetric: "TGI"
  valueQualifier: "="
  reading: 13.7
